- system: Cytochrome P450 2D6 (Homo sapiens) (UniProt P10635)
- Sequence (P10635 whole entry, looked up): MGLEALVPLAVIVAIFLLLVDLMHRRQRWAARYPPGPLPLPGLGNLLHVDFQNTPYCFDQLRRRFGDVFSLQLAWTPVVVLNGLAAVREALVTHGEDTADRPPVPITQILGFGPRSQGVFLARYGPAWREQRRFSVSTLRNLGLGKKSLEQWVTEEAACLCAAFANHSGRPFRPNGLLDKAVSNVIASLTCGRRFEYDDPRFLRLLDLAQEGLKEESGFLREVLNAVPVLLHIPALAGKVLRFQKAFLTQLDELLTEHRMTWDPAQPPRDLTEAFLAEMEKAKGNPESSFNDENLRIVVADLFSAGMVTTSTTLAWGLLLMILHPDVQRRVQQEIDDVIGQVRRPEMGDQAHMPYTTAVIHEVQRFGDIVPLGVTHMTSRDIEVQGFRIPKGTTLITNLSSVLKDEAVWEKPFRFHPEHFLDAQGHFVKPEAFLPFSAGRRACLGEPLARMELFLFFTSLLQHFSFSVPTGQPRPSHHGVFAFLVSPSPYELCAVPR
- test-name: Cytochrome panel assay with activity outcomes
- experimental-parameters: recombinant CYP, pro-luciferin dealkylation, luminescence, p450-cyp2d6; series mostly up to 57.1 µM
Among all 16,000 compounds or so, about 2,600 (16%) were called active. Another 20% or so got no clear call; they are omitted. Calls follow the shape of the dose curve; as a rule, active = well fitted curve in the direction sought with a large enough effect; inconclusive = small, poorly fitted or top-dose-only effect, or effect the other way; inactive = no such curve, though single readings can be large or run the other way. Not all results are given here.
Would you mind answering with one of these outcomes? active, inactive

Examples with answers:
**Query** Can you look up the reported call for Nc1cc(N)nc(SCC(=O)c2ccccc2)n1 for me?
**Result** inactive

**Query** Can you look up the reported call for Cn1cc(/C=N/n2cnc3sc4c(c3c2=O)CCCC4)c2ccccc21 for me?
**Result** inactive

**Query** Can you look up the reported call for Cc1ccc(C(C(=O)NC2CCCCC2)N(CC2CCCO2)C(=O)CNC(=O)c2cccs2)cc1 (stereo not given) for me?
**Result** active

**Query** Can you look up the reported call for CS(=O)(=O)Nc1cccc(-c2nc(Nc3ccncc3)c3ccccc3n2)c1 for me?
**Result** active

**Query** Can you look up the reported call for CC(=O)Nc1ccc(NC(=O)CC2Nc3cccc4cccc(c34)NC2=O)cc1 (stereo not given) for me?
**Result** inactive

Field: next compound
**Query** Can you look up the reported call for Cc1ccc2nc(NC(=O)CSc3nc4c(c(=O)n3C)SC(C)C4)sc2c1 (stereo not given) for me?
**Result** inactive

* * *

- system: Cytochrome P450 2D6 (Homo sapiens) (UniProt P10635)
- test-name: Cytochrome panel assay with activity outcomes
- experimental-parameters: recombinant CYP, pro-luciferin dealkylation, luminescence, p450-cyp2d6; series mostly up to 57.1 µM
In all, about 16,000 compounds went through this assay and about 2,600 (16%) were called active. Not shown: some 20% with an inconclusive outcome. Calls follow the shape of the dose curve; as a rule, active = well fitted curve in the direction sought with a large enough effect; inconclusive = small, poorly fitted or top-dose-only effect, or effect the other way; inactive = no such curve, though single readings can be large or run the other way. The list is a sample of the results.
Would you mind answering with one of these outcomes? YES for active, NO for inactive

Examples with answers:
**Query** Can you look up the reported call for NC(=S)Nc1cccc2cccnc12 for me?
**Result** NO

**Query** Can you look up the reported call for O=C(Cc1csc(Nc2nc(=S)[nH]c3ccccc23)n1)NCc1cccc(Cl)c1 for me?
**Result** NO

**Query** Can you look up the reported call for C=CCN(CC=C)C(=S)NC(=O)c1ccc(OC)c(Br)c1 for me?
**Result** YES

**Query** Can you look up the reported call for Cc1ccc(-c2csc(C(C#N)=C3CCCC3)n2)cc1 for me?
**Result** NO

**Query** Can you look up the reported call for O=c1cc(O)cc(/C=C\c2ccc(O)c(O)c2)o1 for me?
**Result** NO

Continuing:
**Query** Can you look up the reported call for CCCC[C@@H]1C[C@H]1C(NC(=O)c1cccs1)c1ccccc1C(F)(F)F (stereo partly specified) for me?
**Result** NO

* * *

- system: Cytochrome P450 2D6 (Homo sapiens) (UniProt P10635)
- test-name: Cytochrome panel assay with activity outcomes
- experimental-parameters: recombinant CYP, pro-luciferin dealkylation, luminescence, p450-cyp2d6; series mostly up to 57.1 µM
In all, about 16,000 compounds went through this assay and about 2,600 (16%) were called active. Another 20% or so got no clear call; they are omitted. Calls follow the shape of the dose curve; as a rule, active = well fitted curve in the direction sought with a large enough effect; inconclusive = small, poorly fitted or top-dose-only effect, or effect the other way; inactive = no such curve, though single readings can be large or run the other way. These entries were drawn from the full list.
Would you mind answering with one of these outcomes? yes = active, no = inactive

Examples with answers:
**Query** Can you look up the reported call for O=C(Nc1ccccc1)c1cc(-c2ccccc2Cl)no1 for me?
**Result** no

**Query** Can you look up the reported call for CCC(=O)n1nc(-c2ccc(OC)cc2)nc1N for me?
**Result** no

**Query** Can you look up the reported call for Cc1ncc2c(c1O)COP(=O)(O)OC2 for me?
**Result** yes

**Query** Can you look up the reported call for O=c1c(-c2ccc(Cl)cc2)nc2cnc(N3CCNCC3)nc2n1Cc1cccs1 for me?
**Result** no

**Query** Can you look up the reported call for CCC(=O)c1ccc(OCC(O)CN(CCc2ccccc2)Cc2ccccc2)cc1 (stereo unspecified) for me?
**Result** yes

Field: next compound
**Query** Can you look up the reported call for COc1ccc(NC(=O)c2cc(-c3ccccc3Cl)no2)cc1 for me?
**Result** no

* * *

- system: Cytochrome P450 2D6 (Homo sapiens)
- test-name: Cytochrome panel assay with activity outcomes; as to activity, negative = inhibition: % is scaled to controls: 0 for no effect and ±100 for the full control effect
- experimental-parameters: recombinant CYP, pro-luciferin dealkylation, luminescence, p450-cyp2d6; series mostly up to 57.1 µM
About 2,600 (16%) of roughly 16,000 compounds were called active. Not shown: some 20% with an inconclusive outcome. The list is a sample of the results.
Form field: activity, negative = inhibition (one value per entry).

Sample answers from the record:
**Query** Given the entry Cn1c(=O)c2c(ncn2CN2CCN(Cn3cnc4c3c(=O)n(C)c(=O)n4C)CC2)n(C)c1=O , report its measured activity, negative = inhibition.
**Result** -3.86% [at 11.4 µM] (inactive)

**Query** Given the entry COc1ccc2c(Cl)cc(NC(=S)Nc3ccccc3)nc2c1 , report its measured activity, negative = inhibition.
**Result** -18.8% [at 11.4 µM] (inactive)

**Query** Given the entry CO[C@@H](C(C)C)[C@@H](C)[C@@H]1OC(=O)C[C@@H]1O , report its measured activity, negative = inhibition.
**Result** -14.8% [at 11.4 µM] (inactive)

Continuing:
**Query** Given the entry CC(=O)OC[C@@H]1O[C@@H](O/N=C2/C[C@@H](O)[C@@H](O)[C@@H]3[C@@H]4C(=O)N(Cc5ccc6c(c5)OCO6)C(=O)[C@H]4CC[C@@H]23)[C@H](OC(C)=O)[C@H](OC(C)=O)[C@@H]1OC(C)=O , report its measured activity, negative = inhibition.
**Result** -5.23% [at 11.4 µM] (inactive)

* * *

- system: Cytochrome P450 2D6 (Homo sapiens)
- test-name: Cytochrome panel assay with activity outcomes
- experimental-parameters: recombinant CYP, pro-luciferin dealkylation, luminescence, p450-cyp2d6; series mostly up to 57.1 µM
Hit rate of the full screen: of about 16,000 compounds, about 2,600 (16%) were called active. Not shown: some 20% with an inconclusive outcome. Calls come from the whole dose curve; as a rule, active = well fitted curve in the direction sought with a large enough effect; inconclusive = small, poorly fitted or top-dose-only effect, or effect the other way; inactive = no such curve, though single readings can be large or run the other way. These entries were drawn from the full list.
Would you mind answering with one of these outcomes? class 1 (active), class 0 (inactive)

**Query** Can you look up the reported call for CCN(CCCc1ccccc1)CCCc1ccccc1 for me?
**Result** class 1

Continuing:
**Query** Can you look up the reported call for CC(CCc1ccccc1)NC(=O)C(=O)NCCO (stereo not drawn) for me?
**Result** class 0

**Query** Can you look up the reported call for O=C(NCCCc1ccccc1)c1cccs1 for me?
**Result** class 0

* * *

- system: Cytochrome P450 2D6 (Homo sapiens)
- test-name: Cytochrome panel assay with activity outcomes; as to activity, negative = inhibition: % is scaled to controls: 0 for no effect and ±100 for the full control effect
- experimental-parameters: recombinant CYP, pro-luciferin dealkylation, luminescence, p450-cyp2d6; series mostly up to 57.1 µM
The whole screen tested about 16,000 compounds, of which about 2,600 (16%) were called active. About 20% were inconclusive and are not listed. The list is a sample of the results.
measurement-type: activity, negative = inhibition

Sample answers from the record:
**Query** Given the entry O=C(O)c1c(Br)c(Br)c(Br)c(Br)c1C1c2ccc(O)cc2Oc2cc(O)ccc21 , report its measured activity, negative = inhibition.
**Result** -6.23% [at 11.4 µM] (inactive)

**Query** Given the entry c1cc(NNc2cccc(-c3nn[nH]n3)c2)cc(-c2nn[nH]n2)c1 , report its measured activity, negative = inhibition.
**Result** 16.4% [at 11.4 µM] (inactive)

**Query** Given the entry C[C@H](c1ccccc1)N1C(=O)[C@H]2[C@@H]3[C@H](O)[C@H](O)CC(=O)[C@H]3CC[C@H]2C1=O , report its measured activity, negative = inhibition.
**Result** 4.75% [at 11.4 µM] (inactive)

**Query** Given the entry CC(=O)OC[C@@H]1O[C@H](C/C=N\OCC[C@H]2C=C[C@H](OC(C)=O)[C@@H](COC(C)=O)O2)C=C[C@@H]1OC(C)=O , report its measured activity, negative = inhibition.
**Result** -6.46% [at 11.4 µM] (inactive)

**Query** Given the entry CC(C)=C[C@H]1[C@@H](C(=O)Oc2ccccc2C(C)C)C1(C)C , report its measured activity, negative = inhibition.
**Result** 0.868% [at 11.4 µM] (inactive)

Continuing:
**Query** Given the entry CSc1ccc(NC(=O)Nc2cc(C)ccn2)cc1 , report its measured activity, negative = inhibition.
**Result** -10.4% [at 11.4 µM] (inactive)

**Query** Given the entry C#CCCCO/N=C1/C[C@@H](O)[C@@H](O)[C@@H]2[C@H]3C(=O)N(c4ccc(F)cc4F)C(=O)[C@@H]3CC[C@H]12 , report its measured activity, negative = inhibition.
**Result** -3.2% [at 11.4 µM] (inactive)

**Query** Given the entry O=C(O)[C@@H](Cc1c[nH]c2ccccc12)C(=O)NO , report its measured activity, negative = inhibition.
**Result** 4.35% [at 11.4 µM] (inactive)

**Query** Given the entry C[N+]1(C)CCc2cc(O)c(O)cc2[C@H]1Cc1ccc(O)c(O)c1 , report its measured activity, negative = inhibition.
**Result** -2.15% [at 11.4 µM] (inactive)

Ref: PubChem BioAssay AID1851
